systemName: Ubiquitin carboxyl-terminal hydrolase 10 (Homo sapiens) (UniProt Q14694)
Sequence (Q14694 whole entry, looked up): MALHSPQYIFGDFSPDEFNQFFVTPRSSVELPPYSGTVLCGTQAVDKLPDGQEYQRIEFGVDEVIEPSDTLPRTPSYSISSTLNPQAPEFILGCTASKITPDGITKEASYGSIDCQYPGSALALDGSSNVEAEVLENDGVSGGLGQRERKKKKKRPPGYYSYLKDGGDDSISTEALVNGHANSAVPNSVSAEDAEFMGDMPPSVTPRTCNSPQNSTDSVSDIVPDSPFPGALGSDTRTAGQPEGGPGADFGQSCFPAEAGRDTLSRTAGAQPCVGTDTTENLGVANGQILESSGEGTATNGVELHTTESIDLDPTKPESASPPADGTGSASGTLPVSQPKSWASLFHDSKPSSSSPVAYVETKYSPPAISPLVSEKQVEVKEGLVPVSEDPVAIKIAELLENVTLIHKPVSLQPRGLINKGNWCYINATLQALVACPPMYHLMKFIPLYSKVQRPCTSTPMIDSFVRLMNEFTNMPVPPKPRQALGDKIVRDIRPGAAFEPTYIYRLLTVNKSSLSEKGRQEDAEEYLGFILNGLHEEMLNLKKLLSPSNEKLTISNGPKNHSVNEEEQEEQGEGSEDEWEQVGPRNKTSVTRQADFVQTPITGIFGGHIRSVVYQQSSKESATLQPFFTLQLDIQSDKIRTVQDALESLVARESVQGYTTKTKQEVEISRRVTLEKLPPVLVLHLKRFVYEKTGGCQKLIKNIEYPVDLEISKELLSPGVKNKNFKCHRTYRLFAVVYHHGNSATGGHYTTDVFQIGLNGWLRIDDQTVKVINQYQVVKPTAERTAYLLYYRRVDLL
procedureText: ubiquitin-specific protease 10 DUB inhibitors, concentration-effect, biochemical, verification of primary screen actives (AID 1645863);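 note: potency values describe inhibition of USP10 cleavage of a fluorogenic ubiquitin substrate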
studyConditions: USP10 deubiquitinase enzymatic assay
Active and inactive are the calls of the source. The rule behind the calls is not given here.
Possible outcomes: T (active), F (inactive)

>>> assignedlabel("COC(=O)c1ccc2c(=O)n(CCCCCC(=O)NCCc3ccc(OC)c(OC)c3)c(=O)[nH]c2c1")
"F"
>>> assignedlabel("OC1CCCN(c2ncc(-c3cnccn3)c(-c3cccs3)n2)C1 (stereo unspecified)")
"F"
>>> assignedlabel("NC(=O)C1(N2CCCCC2)CCN(c2ncc3c(=O)n(-c4ccccc4)c(=O)[nH]c3n2)CC1")
"F"
>>> assignedlabel("FC(F)(F)c1cccc(Nc2nc(-c3ccccn3)nc3ccccc23)c1")
"F"
>>> assignedlabel("COc1cc2c(=O)n(CC3CCCO3)c(=O)n(CC(=O)c3ccc4c(c3)OCO4)c2cc1OC (stereo unspecified)")
"T"
>>> assignedlabel("Cc1cccc(Cl)c1NC(=O)Nc1ccc(NC(=O)c2ccccc2O)cc1")
"T"

* * *

systemName: UniProt:Q14694
procedureText: ubiquitin-specific protease 10 DUB inhibitors, concentration-effect, biochemical, verification of primary screen actives (AID 1645863);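 note: potency values describe inhibition of USP10 cleavage of a fluorogenic ubiquitin substrate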
studyConditions: USP10 deubiquitinase enzymatic assay
Calls of active or inactive are those of the source. The rule behind the calls is not given here.
Possible outcomes: 1.0 (active), 0.0 (inactive)

>>> assignedlabel("O=C(Cn1cnc(-c2noc(-c3ccc(F)cc3)n2)c1)Nc1ccccc1F")
0.0
>>> assignedlabel("O=C(Nc1nc2c(ccc3ccccc32)s1)c1cccc(Br)c1")
0.0
>>> assignedlabel("O=C(Nc1cccc(F)c1)Nc1cccc(-c2nnc(-c3ccccc3)o2)c1")
1.0
>>> assignedlabel("CCOc1ccc(CC(=O)Nc2ccc(-c3cn4cccnc4n3)cc2)cc1")
0.0
>>> assignedlabel("O=C(Oc1ccc2cc(Br)ccc2c1)c1ccncc1")
0.0
>>> assignedlabel("O=C(Cn1c(=O)[nH]c2ccccc2c1=O)NCc1ccccc1Cl")
0.0
>>> assignedlabel("O=C(COc1ccc(N2CC(C(=O)NCc3ccc4c(c3)OCO4)CC2=O)cc1)Nc1ccc(Cl)cc1 (centres undefined)")
1.0
>>> assignedlabel("O=C(c1ccncc1)N1CCN(CC2CC=CCC2)CC1 (centres undefined)")
0.0
>>> assignedlabel("O=C(Nc1nc(-c2ccccc2)ns1)c1ccc2ncsc2c1")
1.0

* * *

systemName: Ubiquitin carboxyl-terminal hydrolase 10 (Homo sapiens) (UniProt Q14694)
procedureText: ubiquitin-specific protease 10 DUB inhibitors, concentration-effect, biochemical, verification of primary screen actives (AID 1645863);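 note: potency values describe inhibition of USP10 cleavage of a fluorogenic ubiquitin substrate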
studyConditions: USP10 deubiquitinase enzymatic assay
Active and inactive are the calls of the source. The rule behind the calls is not given here.
Possible outcomes: active, inactive

>>> assignedlabel("O=C(O)c1cccc(NC(=O)C(Sc2cccc(NC(=O)c3cccc(Cl)c3)c2)c2ccccc2)c1 (stereo unspecified)")
"active"
>>> assignedlabel("Cc1ccccc1-c1noc(-c2cn(Cc3ccc(NC(=O)Cc4ccccc4)cc3)cn2)n1")
"inactive"
>>> assignedlabel("O=C(Nc1cc(F)c2nc(N3CCCC3)ccc2c1)c1ccco1")
"inactive"
>>> assignedlabel("Cc1ccnc(Nc2nc(-c3ccccc3)c3cc(Cl)ccc3n2)n1")
"active"
>>> assignedlabel("CCC(=O)Nc1nc2cc(NC(=O)Nc3ccc(C)cc3)ccc2s1")
"inactive"
>>> assignedlabel("COc1ccc(CNC(=O)CN2C(=O)CC(c3ccccc3)=Nc3ccccc32)cc1")
"inactive"
